Target: TLR7/NFKb HEK cells (Homo sapiens)
Assay: HEK Cell Assay (TLR7/NFKb reporter, Steady-Glo luciferase readout)
Conditions: 30 min compound preincubation, then R*48 agonist for 5 hours, read-out: Potency
pIC50: −log10 of the molar value.
The following molecules are listed with their measured pIC50 values.

Would you please look over these solved cases?
* CN1CCC(CC(=O)NC2CN(c3ccc(C#N)c4nccnc34)CC(F)(F)C2)CC1 (single isomer, unassigned) [Compound 522] | > 6.00
* C[C@H]1C[C@@H](NC(=O)[C@H](C)N)CN(c2ccnc3nccnc23)C1 [Compound 27] | 5.00 to 6.00
* C[C@H]1C[C@@H](NC(=O)CC2C3CC2CN(C)C3)CN(c2ccc(C#N)c3nccnc23)C1 (single isomer, unassigned) [Compound 357] | > 6.00
* CCC(C)CC(=O)N[C@@H]1C[C@H](C)CN(c2ccc(C#N)c3nccnc23)C1 (single isomer, unassigned) [Compound 151] | > 6.00
* Fc1ccc2nccc(N3CCC(CNCCN4CCCCC4)CC3)c2c1 [Compound 378] | 5.00 to 6.00

# input Write down pIC50 measured for item C[C@H]1C[C@@H](NC(=O)CN2CCN(C)CC2)CN(c2ccc(C(F)(F)F)c3ncccc23)C1 [Compound 243]
# output > 6.00

# input Write down pIC50 measured for item NC1CN(c2ccc(C(F)(F)F)c3ncccc23)CC(F)(F)C1 (stereo not shown) [Compound 510]
# output > 6.00

* * *

Biological target: TLR7/NFKb HEK cells (Homo sapiens, UniProt Q9NYK1)
Sequence (Q9NYK1 27-1049): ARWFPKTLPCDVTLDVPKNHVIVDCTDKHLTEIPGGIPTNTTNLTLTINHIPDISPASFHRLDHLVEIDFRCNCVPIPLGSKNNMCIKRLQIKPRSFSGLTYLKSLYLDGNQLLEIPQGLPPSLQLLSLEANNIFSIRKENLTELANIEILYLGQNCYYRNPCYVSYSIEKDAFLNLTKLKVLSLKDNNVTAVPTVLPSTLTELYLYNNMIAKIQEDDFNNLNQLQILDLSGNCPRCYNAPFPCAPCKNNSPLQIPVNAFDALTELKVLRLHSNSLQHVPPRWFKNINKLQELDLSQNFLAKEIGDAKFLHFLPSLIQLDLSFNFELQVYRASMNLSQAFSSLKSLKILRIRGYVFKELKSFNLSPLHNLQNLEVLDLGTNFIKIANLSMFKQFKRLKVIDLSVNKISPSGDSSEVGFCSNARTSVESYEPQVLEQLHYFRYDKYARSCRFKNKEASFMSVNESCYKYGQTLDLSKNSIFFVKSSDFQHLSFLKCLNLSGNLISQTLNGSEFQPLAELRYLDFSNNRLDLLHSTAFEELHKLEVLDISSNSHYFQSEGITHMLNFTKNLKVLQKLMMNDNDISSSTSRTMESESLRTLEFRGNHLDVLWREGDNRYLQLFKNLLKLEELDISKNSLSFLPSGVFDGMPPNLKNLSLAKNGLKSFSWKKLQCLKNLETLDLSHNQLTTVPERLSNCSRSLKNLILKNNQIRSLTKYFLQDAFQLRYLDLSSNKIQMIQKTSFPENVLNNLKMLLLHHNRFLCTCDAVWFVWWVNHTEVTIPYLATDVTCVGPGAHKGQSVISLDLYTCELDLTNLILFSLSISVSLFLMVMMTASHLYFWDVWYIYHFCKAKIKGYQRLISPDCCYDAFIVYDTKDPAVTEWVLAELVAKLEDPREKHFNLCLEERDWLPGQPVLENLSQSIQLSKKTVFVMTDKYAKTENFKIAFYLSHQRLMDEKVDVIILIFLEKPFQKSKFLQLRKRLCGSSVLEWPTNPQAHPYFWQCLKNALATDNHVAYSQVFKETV
Experiment: HEK Cell Assay (TLR7/NFKb reporter, Steady-Glo luciferase readout)
Details: 30 min compound preincubation, then R*48 agonist for 5 hours, read-out: Potency
pIC50: −log10 of the molar value.
The following molecules are listed with their measured pIC50 values.

Would you please look over these solved cases?
- CCN(CC)C(=O)CCC(=O)N[C@@H]1C[C@H](C(F)(F)F)CN(c2ccc(C#N)c3ncccc23)C1 [Compound 579]: 5.00 to 6.00
- C[C@H]1C[C@@H](NC(=O)C2(C)COC2)CN(c2ccnc3nccnc23)C1 [Compound 37]: < 5.00
- COc1ccc(N2C[C@@H](C)C[C@@H](NC(=O)CN(C)C)C2)c2nccnc12 [Compound 203]: 5.00 to 6.00
- CN1CCC(NC(=O)C2CN(c3ccc(C#N)c4ncccc34)CC(F)(F)C2)CC1 (stereo not shown) [Compound 530]: > 6.00
- C[C@H]1C[C@@H](NC(=O)COC(C)(C)C)CN(c2ccnc3nccnc23)C1 [Compound 164]: < 5.00
- C[C@H]1C[C@@H](NC(=O)[C@H](N)c2ccccc2)CN(c2ccc(C#N)c3nccnc23)C1 [Compound 119]: > 6.00

# input Write down pIC50 measured for item C[C@H]1C[C@@H](NC(=O)CC2CCN(CC(F)F)CC2)CN(c2ccc(C#N)c3nccnc23)C1 [Compound 234]
# output > 6.00

# input Write down pIC50 measured for item N#Cc1ccc(N2CCC(C(=O)NCCN3CCC3)CC2)c2cccnc12 [Compound 439]
# output > 6.00

# input Write down pIC50 measured for item Cc1cc2c(N3C[C@@H](C)O[C@@H](C)C3)ccnc2n1C [Compound 46]
# output < 5.00

# input Write down pIC50 measured for item N[C@H]1C[C@@H](C2CC2)CN(c2ccc(C(F)F)c3ncccc23)C1 (relative stereo) [Compound 332]
# output > 6.00

# input Write down pIC50 measured for item CCN(CC)CCNC(=O)C1CCN(c2ccnc3ncccc23)CC1 [Compound 1]
# output < 5.00

# input Write down pIC50 measured for item N#Cc1ccc(N2CC(N)CC(C3CC3)C2)c2nccnc12 (single isomer, unassigned) [Compound 69]
# output 5.00 to 6.00

* * *

Target: TLR7/NFKb HEK cells (Homo sapiens, UniProt Q9NYK1)
Assay: HEK Cell Assay (TLR7/NFKb reporter, Steady-Glo luciferase readout)
Details: 30 min compound preincubation, then R*48 agonist for 5 hours, read-out: Potency
pIC50: −log10 of the molar value. Structures can show the parent of a compound that is named as a salt.
The following compounds are listed with their measured pIC50 values.

• O=C(NC1CCN(CC2CC2)C1)C1CCN(c2ccc(C(F)(F)F)c3ncccc23)CC1 (single isomer, unassigned) [Compound 445] = > 6.00
• C[C@H]1C[C@@H](NC(=O)CC(C)(C)C)CN(c2ccc(C(N)=O)c3ncccc23)C1 = 5.00 to 6.00
• CC(C)[C@H](O)C(=O)N[C@@H]1C[C@H](C(F)(F)F)CN(c2ccnc3nccnc23)C1 [Compound 89, hydrochloride] = < 5.00

# input Write down pIC50 measured for item C[C@H]1C[C@@H](N)CN(c2ncc(C#N)c3ncncc23)C1 [Compound 458, hydrochloride]
# output < 5.00

# input Write down pIC50 measured for item C[C@H]1C[C@@H](NC(=O)CC2CCN(C)C2)CN(c2ccc(C(F)(F)F)c3nccnc23)C1 (stereo partly shown)
# output > 6.00

# input Write down pIC50 measured for item `COCCN[C@@H]1C[C@H](C)CN(c2ccc(C(F)(F)F)c3ncccc23)C1`
# output > 6.00

# input Write down pIC50 measured for item N#Cc1ccc(N2C[C@@H](NC(=O)CCC(N)=O)C[C@@H](C(F)(F)F)C2)c2cccnc12 (relative stereo)
# output 5.00 to 6.00

* * *

Target: TLR7/NFKb HEK cells (Homo sapiens, UniProt Q9NYK1)
Test: HEK Cell Assay (TLR7/NFKb reporter, Steady-Glo luciferase readout)
Details: 30 min compound preincubation, then R*48 agonist for 5 hours, read-out: Potency
pIC50: −log10 of the molar value.
Endpoint label: pIC50

Would you please look over these solved cases?
- N#Cc1ccc(N2C[C@@H](NC(=O)CN3CCOCC3)C[C@@H](C(F)(F)F)C2)c2cccnc12 (racemic) [Compound 424]: 5.00 to 6.00
- CC1CC(C(=O)N2CCN(C)CC2)CN(c2ccc(C(F)(F)F)c3ncccc23)C1 (stereo not shown) [Compound 549]: 5.00 to 6.00
- CN1CCN(CC(=O)N[C@H]2C[C@@H](C3CC3)CN(c3ccc(C(F)(F)F)c4ncccc34)C2)CC1 (racemic) [Compound 338]: > 6.00

# input Write down pIC50 measured for item C[C@@H]1CN(c2ccc(C#N)c3nccnc23)C[C@H](CN2CCC(N3CCCC3)CC2)O1 [Compound 57]
# output > 6.00

* * *

The following compounds are listed with their measured IC50 values.
Target: TLR7/NFKb HEK cells (Homo sapiens, UniProt Q9NYK1)
Construct: expressed in transfected cells; host or cells: HEK cells (TLR7/NFKb reporter line)
Experiment: HEK Cell Assay (TLR7/NFKb reporter, Steady-Glo luciferase readout)
Type: cell-based
Conditions: 30 min compound preincubation, then R*48 agonist for 5 hours, read-out: Potency

* C[C@H]1C[C@@H](NC(=O)C(O)C2CC2)CN(c2ccc(C(F)(F)F)c3ncccc23)C1 (single isomer, unassigned) [Compound 521] | < 1000 nM

# input Write down IC50 measured for item C[C@H]1C[C@@H](NC(=O)CN2CCC(C)(C)C2)CN(c2ccc(C(F)(F)F)c3ncccc23)C1 [Compound 573]
# output < 1000 nM

# input Write down IC50 measured for item CC(=O)N[C@@H]1C[C@H](C)CN(c2ccc(C(F)(F)F)c3ncccc23)C1 [Compound 517]
# output < 1000 nM

# input Write down IC50 measured for item C[C@H]1C[C@@H](NC2CCNC2=O)CN(c2ccc(C#N)c3nccnc23)C1 (stereo partly shown) [Compound 123]
# output < 1000 nM

# input Write down IC50 measured for item Cc1cc(F)c(N2C[C@@H](C)C[C@@H](N)C2)c2cccnc12 [Compound 489]
# output < 1000 nM

# input Write down IC50 measured for item N#Cc1ccc(N2CC(N)CC(C(F)(F)F)C2)c2nccnc12 (single isomer, unassigned) [Compound 83]
# output < 1000 nM

* * *

Target: TLR7/NFKb HEK cells (Homo sapiens, UniProt Q9NYK1)
Assay: HEK Cell Assay (TLR7/NFKb reporter, Steady-Glo luciferase readout)
Settings: 30 min compound preincubation, then R*48 agonist for 5 hours, read-out: Potency
The following molecules are listed with their measured IC50 values.

• N#Cc1ccc(N2CC(NC(=O)C(N)C(F)(F)F)CC(C3CC3)C2)c2nccnc12 (single isomer, unassigned) [Compound 178] = 1000 to 10000 nM

# input Quote TLR7/NFKb HEK cells (Homo sapiens, UniProt Q9NYK1) IC50 for entry CN1CCC(NC2CC(C(F)(F)F)CN(c3ccc(C#N)c4nccnc34)C2)C1=O (single isomer, unassigned) [Compound 224] .
# output 1000 to 10000 nM

# input Quote TLR7/NFKb HEK cells (Homo sapiens, UniProt Q9NYK1) IC50 for entry C[C@H]1C[C@@H](NC(=O)CC(C)(C)CN)CN(c2ccc(C(F)(F)F)c3ncccc23)C1 [Compound 291] .
# output < 1000 nM

# input Quote TLR7/NFKb HEK cells (Homo sapiens, UniProt Q9NYK1) IC50 for entry C[C@H]1C[C@@H](NC(=O)C(C)(C)C2CCN(C)CC2)CN(c2ccc(C(F)(F)F)c3nccnc23)C1 [Compound 355] .
# output < 1000 nM

# input Quote TLR7/NFKb HEK cells (Homo sapiens, UniProt Q9NYK1) IC50 for entry COC(C)C(=O)N[C@@H]1C[C@H](C)CN(c2ccc(C#N)c3nccnc23)C1 (single isomer, unassigned) [Compound 158] .
# output 1000 to 10000 nM

# input Quote TLR7/NFKb HEK cells (Homo sapiens, UniProt Q9NYK1) IC50 for entry CC(C(=O)N[C@@H]1C[C@H](C)CN(c2ccc(C(F)(F)F)c3nccnc23)C1)N1CC(O)C1 (stereo partly shown) [Compound 297] .
# output < 1000 nM

# input Quote TLR7/NFKb HEK cells (Homo sapiens, UniProt Q9NYK1) IC50 for entry CC(C)(C)CC(=O)NCC1CCN(c2ccnc3nccnc23)CC1 [Compound 399] .
# output > 10000 nM

Ref: patent US10947213B1
